For each entry below, report its z-score value.
test: blockers of DNA damage checkpoint Chk1 activation – imaging, HeLa, hydroxyurea, phospho-Chk1 antibody, percent positive cells, primary screen (AID 1186); conditions: hydroxyurea-induced phospho-Chk1 immunofluorescence imaging, higher = more signal
Give bare numbers.

Solved cases (3 shown):
compound	z-score
CC(c1ccccc1)C(O)C1C=CC2C(=O)N(Cc3ccccc3)C(=O)C2N1n1cnnc1 (configuration not stated)	0.106
O=C1OCC=C[C@H]2OC34C=CCN(c5ccc6ccccc6c5)C(=O)[C@H]3N(CCO)C(=O)[C@@H]4[C@@H]12 (some centres not stated)	0.0775
C[n+]1ccc2ccc(O)cc2c1	0.124

// batch mode: one z-score value per listed entry
1. Cc1ccc(N2C(=O)c3ccccc3[C@](C)(C(=O)NCCN3CCOCC3)[C@@H]2c2ccc(CO)cc2)nc1
2. COCCCNC(=O)[C@@]1(Cc2ccccc2I)c2ccccc2C(=O)N(Cc2ccccc2)[C@H]1c1ccc(CO)cc1
3. C=CCNC(=O)[C@H]1[C@@H]2C(=O)O[C@@H](c3ccccc3)[C@@H](c3ccccc3)N2[C@@H](c2ccc(O)cc2)[C@]12C(=O)Nc1ccc(C#Cc3ccc(OC)cc3)cc12
4. O=C1O[C@H](c2ccccc2)[C@H](c2ccccc2)N2[C@H]1[C@@H](C(=O)NC[C@H](O)c1ccccc1)[C@]1(C(=O)Nc3ccc(C#CC4(O)CCCCCC4)cc31)[C@H]2c1ccccc1OCCO

1: -0.217; 2: -0.0143; 3: 0.0407; 4: -0.0899

----------
tested on: glycogen synthase kinase-3 (GSK3A per assay name; protocol says GSK3B); assay: compounds binding glycogen synthase kinase-3 – biochemical, small-molecule microarray, 635 nm fluorescence, GSK3A, primary screen (AID 1103); conditions: fluorescence 635 nm, higher = more signal; further: the record names both GSK3A and GSK3B
For each entry below, report its composite z-score value.
Give bare numbers.

compound	composite z-score
COCCOC(=O)N1C(=O)[C@@]2(c3cc(C#CCCO)ccc31)[C@H](c1ccc(O)cc1)N1[C@H](c3ccccc3)[C@H](c3ccccc3)OC(=O)[C@H]1[C@@H]2C(=O)N1CCCCCCC1	1.26
COc1ccc(C(O)C2C=CC3C(=O)N(c4ccccc4)C(=O)C3N2Nc2ccccc2)c2ccccc12 (stereo unspecified)	0.0564

// batch mode: one composite z-score value per listed entry
1. O=C(NCc1ccccc1)[C@@H]1c2ccccc2C(=O)N(Cc2cc(F)cc(C(F)(F)F)c2)[C@H]1c1ccc(CO)cc1
2. COCCOC(=O)N1C(=O)[C@@]2(c3cc(C#Cc4ccc(OC)cc4)ccc31)[C@H](c1ccc(OCCO)cc1)N1[C@H](c3ccccc3)[C@H](c3ccccc3)OC(=O)[C@H]1[C@@H]2C(=O)N1CCc2cc(OC)c(OC)cc2C1
3. O=C1C2C=CC(C(O)c3cccc4ccccc34)N(n3cnnc3)C2C(=O)N1Cc1ccccc1 (stereo unspecified)
4. COCCn1c(C(=O)N2CCCC2)cc2c1C[C@H]1CN(C(=O)c3ccccc3)[C@@](Cc3ccc(OC)cc3)(C(=O)OC)[C@@H]21

1. 0.243
2. 1.12
3. -0.181
4. 0.194

----------
test: resazurin metabolic signal in A549 cells – cell-based, resazurin fluorescence, 24 h, PK04 Diversity Set, profiling panel (AID 1171); settings: A549 viability, higher = more signal, called active from +8 up or from −8 down; further: test concentration not given here
For each entry below, report its z-score value.
Give bare numbers.

Solved cases (5 shown):
compound	z-score
CCN(CC)c1ccc(N2CC=CC34O[C@@H]5C=CCCOC(=O)C5[C@H]3C(=O)N(CCCO)[C@@H]4C2=O)cc1 (stereo not given in full)	-0.209
C=CCC(OC(C)=O)[C@@H]1[C@@H](N(Cc2ccc(-c3cccc(C(F)(F)F)c3)o2)C(=O)Cc2ccc(OC)cc2)c2cc(OCCCO)ccc2N1C(=O)Cc1ccc(OC)cc1 (stereo not given in full)	0.139
C[N+](C)(C)CCCC[C@@H]1NC(=O)[C@H]2C[C@@H](C(=O)O)[C@@H](c3cccc(OCCO)c3)N2C1=O	-0.141
CN(C)CCCCCCNC(=O)[C@@H]1C[C@@H]2C(=O)NCC(=O)N2[C@@H]1c1cccc(OCCO)c1	-0.427
O=C(NCC(O)CO)[C@@]1(Cc2ccccc2)COC(c2ccc(OCCCO)cc2)=N1 (stereo not given in full)	-0.0991

// batch mode: one z-score value per listed entry
1. C=CCC(OC(C)=O)[C@@H]1[C@@H](N(Cc2ccc(-c3cccc(C(F)(F)F)c3)o2)C(=O)c2ccc(C)cc2)c2cc(OCCCO)ccc2N1C(=O)c1ccc2ccccc2n1 (stereo not given in full)
2. CCOC(=O)C=Cc1cccc(OC)c1O
3. CCCNC(=O)[C@@]1(C)c2ccccc2C(=O)N(Cc2cc(C(F)(F)F)cc(C(F)(F)F)c2)[C@H]1c1ccc(CO)cc1

1. 0.16
2. -0.787
3. 1.27

// batch mode: one z-score value per listed entry
1. O=C1O[C@@H](c2ccccc2)[C@@H](c2ccccc2)N2[C@@H](c3ccc(O)cc3)[C@]3(C(=O)Nc4ccc(C#CCCO)cc43)[C@@H](C(=O)O)[C@H]12
2. O=C(NCc1ccccc1)[C@@H]1c2ccccc2C(=O)N(Cc2cc(F)cc(C(F)(F)F)c2)[C@H]1c1ccc(CO)cc1

[0.492, -0.811]

----------
biological target: Torsin-1A-interacting protein 1 (Homo sapiens); assay: compound microarray binding of lysate hLAP1 – cell lysate, small-molecule microarray, COS7 lysate, 635/667 nm fluorescence, primary screen (AID 1116); conditions: 635 nm fluorescence, higher = more signal
Hi, to clarify the labels: Yes covers composite z-score from 0.9 upward, No covers anything below 0.9.

Answered examples (3):
compound	labelClass
C=C(CCCC)/C(=C/C[C@H](OC(C)=O)c1ccc(CO)o1)c1cc(C(=O)OC)ccc1OC	No
CC(C)OC(=O)C1=CCC(c2cccc(Cl)c2)O1 (stereo unspecified)	No
O=C1C2C=CC(C(O)c3ccc(Br)cc3)N(n3cnnc3)C2C(=O)N1Cc1ccccc1 (stereo unspecified)	No

Please tell me: is the compound CC(C)(C)OC(=O)CC[C@@]1(C(N)=O)N=C(c2ccc(OCCCO)cc2)O[C@@H]1c1ccccc1N=[N+]=[N-] at or over 0.9 in terms of composite z-score? Yes

Thanks! And CC(=O)n1cc(C(O)C2C=CC3C(=O)N(c4ccccc4)C(=O)C3N2Nc2ccc(C#N)cc2)c2ccccc21 (stereo unspecified) ? No

Thanks! And COc1ccc([Si](C)(C)[C@H]2[C@H](CC(=O)N3CCC[C@H]3CO)O[C@@]3(C(=O)N(c4ccccc4)c4ccccc43)[C@@H]2C)cc1 ? No

Thanks! And CN(C)CCCCCCNC(=O)[C@@H]1C[C@@H]2C(=O)N[C@@H](Cc3ccccc3)C(=O)N2[C@@H]1c1cccc(OCCO)c1 ? Yes

Thanks! And CN(C)CCCC[C@@H]1NC(=O)[C@@H]2C[C@H](C(=O)NCCCCCN)[C@H](c3ccc(O)cc3)N2C1=O ? No

Thanks! And COc1cc2c(cc1O)C(c1ccc(CN3CCCC3)cc1)N(Cc1sc3ccccc3c1Cl)CC2 (stereo unspecified) ? No

----------
test: probe aEGFR binding to arrayed compounds – biochemical, biotinylated probe, 635/667 nm fluorescence, primary screen (AID 1097); settings: small-molecule microarray, higher = more signal;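 further: probe is a biotinylated anti-EGFR antibody binding compounds printed on slides; score combines fluorescence near 667 nm and signal to noise of each spot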
For each entry below, report its composite z-score value.
Give bare numbers.

Solved cases (6 shown):
compound	composite z-score
C=CCN1C(=O)[C@]2(Cc3ccccc31)N=C(c1ccc(OCCCO)cc1)O[C@@H]2c1ccccc1	0.0786
CC(C)N1C(=O)c2ccccc2[C@](C)(C(=O)NCCCN(C)C)[C@@H]1c1ccc(CO)cc1	-0.22
COCCOC(=O)N1C(=O)[C@@]2(c3cc(C#CCCO)ccc31)[C@H](c1ccc(O)cc1)N1[C@H](c3ccccc3)[C@H](c3ccccc3)OC(=O)[C@H]1[C@@H]2C(=O)N1CCCCCCC1	0.335
[N-]=[N+]=NCc1ccccc1C[C@]1(C(=O)NCc2ccccc2)COC(c2ccc(OCCCO)cc2)=N1	-0.0828
C=CCC(OC(C)=O)[C@@H]1[C@@H](N(Cc2cc3ccccc3o2)C(=O)c2ccc(-c3ccccc3)cc2)c2cc(OCCCO)ccc2N1C(=O)Cc1ccc2ccccc2c1 (some centres not stated)	-0.166
COc1ccc(CCNC(=O)[C@@]2(C)c3ccccc3C(=O)N(Cc3ccccc3)[C@H]2c2ccc(CO)cc2)cc1	0.0192

Would you kindly look at the next entry?
Item CN1C(=O)C2C=CC(C(O)C(C)(C)C)N(Nc3ccccc3)C2C1=O (configuration not stated) has what recorded composite z-score? -0.19

----------
molecular target: Torsin-1A (Homo sapiens) (UniProt O14656); test: torsin A mutant lysate binding on microarrays – cell lysate, small-molecule microarray, COS7 lysate, 635/667 nm fluorescence, primary screen (AID 1150); conditions: COS7 hTOR1A mutant lysate, 635 nm fluorescence, higher = more signal;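 further: score pools 667 nm emission and signal to noise measuring lysate protein binding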
Sequence (O14656 whole entry, looked up): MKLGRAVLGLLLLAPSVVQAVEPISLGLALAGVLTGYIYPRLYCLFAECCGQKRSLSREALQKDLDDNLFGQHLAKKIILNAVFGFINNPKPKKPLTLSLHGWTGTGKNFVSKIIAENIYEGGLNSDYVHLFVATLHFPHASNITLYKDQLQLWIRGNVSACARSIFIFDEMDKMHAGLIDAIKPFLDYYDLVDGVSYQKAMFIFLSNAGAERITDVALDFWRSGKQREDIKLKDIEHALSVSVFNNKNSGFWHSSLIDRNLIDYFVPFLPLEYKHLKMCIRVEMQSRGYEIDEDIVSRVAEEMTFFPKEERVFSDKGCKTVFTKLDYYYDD
Hi, to clarify the labels: rule met covers composite z-score from 0.1 upward, rule not met covers anything below 0.1.

Answered examples (3):
compound	labelClass
NC(=O)NCC#Cc1ccc2c(c1)[C@]1(C(=O)N2)[C@H](c2ccc(O)cc2)N2[C@H](c3ccccc3)[C@H](c3ccccc3)OC(=O)[C@H]2[C@@H]1C(=O)N1CCN(c2ncccn2)CC1	rule met
O=C1c2ccccc2[C@](Cc2ccccc2I)(C(=O)O)[C@H](c2ccc(CO)cc2)N1Cc1ccccc1C(F)(F)F	rule not met
CCCCC(=O)N(Cc1ccccc1F)[C@@H]1CC(C(=O)NCCO)=C[C@H](Oc2c(I)cc(CO)cc2OC)[C@H]1O	rule met

Okay, now this compound:
Please tell me: is the compound CN(C)CCCC[C@@H]1NC(=O)[C@@H]2C[C@H](C(=O)NCc3ccc(F)cc3)[C@H](c3cccc(OCCO)c3)N2C1=O at or over 0.1 in terms of composite z-score? rule met

Cited source: PubChem BioAssay
